Tested on: MDA-MB-435 melanoma
Assay: NCI-60 one-dose screen, 48 h (100 = growth as untreated, 0 = no growth, -100 = all killed)
Conditions: 10 µM unless noted
This is part of a sample that, as a whole, favours compounds with a hit. Of some 83,000 tested, about 20% had one in any assay.
Short version: growth at least 30% is rule met, less is rule not met.

Exam item: decide whether the reported growth for `c1ccc(-c2oc(-c3ccccc3)c(CN3CCCCC3)c2CN2CCCCC2)cc1` is at least 30%.
rule met

Exam item: decide whether the reported growth for `COC(=O)/C=C1/SC(=Nc2ccc(C(F)(F)F)cc2)N(CCc2c[nH]c3ccc(O)cc23)C1=O` is at least 30%.
rule not met

Exam item: decide whether the reported growth for `CCNCCNc1cc(-c2ccc(C(F)(F)F)cc2)c(C#N)c2nc3ccccc3n12` is at least 30%.
rule not met

Exam item: decide whether the reported growth for `C=C1C(=O)O[C@H]2[C@H]1CC/C(COC(=O)NCc1ccc(Cn3c(=O)sn(CCCCC)c3=O)cc1)=C\CC[C@@]1(C)O[C@@H]21` is at least 30%.
rule not met

Exam item: decide whether the reported growth for `COC(=O)c1c2c(c(C)[n+]([O-])c1C)C(=O)C(NCc1cccc(OC)c1)=CC2=O` is at least 30%.
rule not met

Exam item: decide whether the reported growth for N#Cc1ccc(O)c(C2=NCC(c3ccccc3)O2)c1 (centres undefined) is at least 30%.
rule met

Exam item: decide whether the reported growth for `CC/C(=C(/c1ccc(Cl)cc1)c1ccc(OCCN2CCCCC2)cc1)c1ccc(OC)cc1` is at least 30%.
rule met

Exam item: decide whether the reported growth for `CCn1cc(C(=O)NNC(=S)Nc2ccc(C)cc2)c(=O)c2ccc(C)nc21` is at least 30%.
rule met

Exam item: decide whether the reported growth for `COc1ccc(-c2cc(-c3cc(OC)c(OC)c(OC)c3)c(C#N)c(=O)n2CCCCC(=O)NO)cc1` is at least 30%.
rule met

----------
Tested on: OVCAR-8 ovarian
Assay: NCI-60 one-dose screen, 48 h
Conditions: 10 µM unless noted
This is part of a sample that, as a whole, favours compounds with a hit. Of some 83,000 tested, about 20% had one in any assay. Activity calls are given as the source filed them. The calls were made as follows: active = growth percent below 10; inactive = the rest.
Assign a class; possible classes are active, inactive

Called result for `CC(=O)c1c(C)nc(SCC(=O)Nc2cccc(O)c2)n1-c1ccc(Cl)cc1`
inactive

Called result for `N#Cc1nc(-c2ccc(F)cc2)oc1S(=O)(=O)N1CCCCC1`
inactive

Called result for `Cn1ccnc1C(=O)/C=C/c1ccc(CC(=O)Nc2cc(C(F)(F)F)cc(C(F)(F)F)c2)cc1`
inactive

Called result for `Oc1ccc(Cl)cc1/C=N\NC(=S)N/N=C/c1cc(Cl)ccc1O`
inactive

Called result for `CCOC(=O)c1cc(C)n(-c2ccc(C(=O)O)cc2)c1C`
inactive

Called result for `COC(=O)c1c2c(c(C)[n+]([O-])c1C)C(=O)C(NCc1cccc(OC)c1)=CC2=O`
active

Called result for `COc1ccccc1CNc1c2ccccc2nc2ccccc12`
inactive

Called result for `Cn1cc(-c2csc(-c3cn(C(=O)OC(C)(C)C)c4ccc(Br)cc34)n2)c2ccnc(Cl)c21`
inactive

Called result for `O=[N+]([O-])c1cccc(-c2nc3cc4nc5ccccc5[nH]c4cc3n2)c1`
inactive

Called result for `COc1ccc(CN2c3ccccc3Sc3ccccc32)cc1F`
inactive

Called result for `COc1ccc(-c2ccc(-c3ccc(C(=N)N)cc3)s2)cc1Cl`
active

Called result for `CCCCNC(=O)CC1=C(C)/C(=C/c2[nH]c(-c3ccc[nH]3)cc2OC)N=C1C`
inactive

Called result for `CCOc1ccccc1Cn1ccnc1CCc1c(Cl)c(O)cc(O)c1C(=O)OC`
inactive

Called result for `COc1ccc(NC2=C(I)C(=O)c3ncccc3C2=O)cc1`
active

Called result for `CC(=O)n1nc(C(=O)OC(C)(C)c2ccccc2)c2ccccc21`
inactive

Called result for `Cn1ccnc1C(=O)/C=C/c1ccc(C(=O)Nc2ccccc2O)cc1`
inactive

Called result for `COc1ccccc1NC(=O)N=Nc1c(O)[nH]c2ccccc12`
inactive

Called result for `O=C(NCCCl)Nc1ncccc1OCc1ccccc1`
inactive

Called result for N#CC1=C(N)Oc2c(sc3c(Br)cccc23)C1c1ccc(Cl)cc1 (stereo unspecified)
inactive

Called result for `COc1ccc(/C=C/C(=O)c2cccc(OCCCCOc3cccc(C(=O)/C=C/c4ccc(OC)c(OC)c4)c3)c2)cc1OC`
inactive

Called result for `CCCCn1c(=O)[nH]c(N)c([C@@H]2c3c([nH]c(=O)n(CCCC)c3=O)Oc3ccc4ccccc4c32)c1=O`
active

----------
System: SK-OV-3 ovarian
Assay: NCI-60 one-dose screen, 48 h (100 = growth as untreated, 0 = no growth, -100 = all killed)
Conditions: 10 µM unless noted
This is part of a sample that, as a whole, favours compounds with a hit. Of some 83,000 tested, about 20% had one in any assay.
Short version: growth at least 80% is t, less is f.

Exam item: decide whether the reported growth for `CCNCCNc1cc(C2CCCCC2)c(C#N)c2nc3ccccc3n12` is at least 80%.
f

Exam item: decide whether the reported growth for `Fc1cccc(Oc2ccc(Nc3ncnc4ccc(OCCCN5CCOCC5)cc34)cc2Cl)c1` is at least 80%.
f

Exam item: decide whether the reported growth for `O=C(CSc1nnc(-c2cnccn2)n1-c1ccccc1)c1ccc(Cl)cc1` is at least 80%.
t

Exam item: decide whether the reported growth for `O=C(N/N=C/c1c(Cl)cccc1Cl)c1cccnc1Nc1cccc(C(F)(F)F)c1` is at least 80%.
f

Exam item: decide whether the reported growth for `CC(=O)/C(=C\c1c(-c2ccccc2)[nH]c2ccccc12)S(C)(=O)=O` is at least 80%.
f

Exam item: decide whether the reported growth for `O=C1C(=O)N(Cc2ccc(-c3ccccc3)cc2)c2ccc(OC(F)(F)F)cc21` is at least 80%.
t

Exam item: decide whether the reported growth for `CN1CCc2nc3sc(C(N)=O)c(N)c3c(-c3cccs3)c2C1` is at least 80%.
f

Exam item: decide whether the reported growth for `OCCn1cc(-c2nc(-c3c[nH]c4ncccc34)cs2)c2cc(F)ccc21` is at least 80%.
f

Exam item: decide whether the reported growth for CCOC(=O)C(=O)C(C(=O)OCC)c1ccccc1 (centres undefined) is at least 80%.
t

Exam item: decide whether the reported growth for O=C(NCc1ccc(Cl)cc1Cl)C1CCC(=O)N1c1cccs1 (centres undefined) is at least 80%.
t

Exam item: decide whether the reported growth for `COc1ccc(C(C)=O)cc1S(=O)(=O)Nc1c(N)nc(SC)[nH]c1=O` is at least 80%.
t

Exam item: decide whether the reported growth for `COc1cc(/C=C/C(=O)c2ccc(F)cc2)ccc1OCCCCOc1ccc(/C=C/C(=O)c2c(C)nc3ccccc3c2C)cc1OC` is at least 80%.
t

Exam item: decide whether the reported growth for CC(=O)N1N=C(c2ccc(C(F)(F)F)c(F)c2)CC1c1[nH]c(C)c(C(=O)NCC(F)(F)F)c1C (centres undefined) is at least 80%.
f

Exam item: decide whether the reported growth for `CC1=C2[C@@H](CC1)[C@]1(C)O[C@@](C(C)C)(C[C@H]1OC(=O)[C@H](C)O)[C@H]2OC(=O)/C=C/c1ccccc1` is at least 80%.
t

Exam item: decide whether the reported growth for `C=CC[Se]C(=O)Cc1c(C)n(C(=O)c2ccc(Cl)cc2)c2ccc(OC)cc12` is at least 80%.
f

Exam item: decide whether the reported growth for `COC(=O)c1c2c(c(C)[n+]([O-])c1C)C(=O)C(NCc1cccc(OC)c1)=CC2=O` is at least 80%.
t

Exam item: decide whether the reported growth for `CSc1nc(N)c(NS(=O)(=O)c2ccc(C(C)=O)cc2)c(=O)[nH]1` is at least 80%.
t

Exam item: decide whether the reported growth for `C#CCOc1cccc(Nc2ncnc3cc(NC(=O)C=C)ccc23)c1` is at least 80%.
f

Exam item: decide whether the reported growth for `O=S(=O)(Nc1ccc(F)cc1F)c1ccc(-c2cnc(C3CC3)o2)cc1` is at least 80%.
f

Exam item: decide whether the reported growth for `O=[N+]([O-])c1cccc(-c2nc3cc4nc5ccccc5[nH]c4cc3n2)c1` is at least 80%.
t

Exam item: decide whether the reported growth for `CCOC(=O)c1ccc2c(c1)nc(-c1ccccc1)n2C1CCCCC1` is at least 80%.
f

Exam item: decide whether the reported growth for `CCNCCNc1cc(-c2ccc(C(F)(F)F)cc2)c(C#N)c2nc3ccccc3n12` is at least 80%.
f

Exam item: decide whether the reported growth for COc1ccc(C2CC(c3ccc(Nc4nc(Nc5ccccc5)nc(Nc5ccccc5)n4)cc3)=NN2C(C)=O)cc1 (centres undefined) is at least 80%.
t

Exam item: decide whether the reported growth for `O=C1/C(=C\c2ccc3nccnc3c2)SC(=S)N1CCc1ccc(O)cc1` is at least 80%.
t

Exam item: decide whether the reported growth for `Nc1cnc(C(=O)NNc2nc3cc(F)ccc3n3cccc23)cn1` is at least 80%.
f

Exam item: decide whether the reported growth for `C=CCn1c(C)nc2ccc(Nc3nc(Nc4ccc5nc(C)n(CC=C)c5c4)c4ccccc4n3)cc21` is at least 80%.
f

Exam item: decide whether the reported growth for `COc1ccc(CNc2c3ccccc3nc3ccccc23)cc1` is at least 80%.
f

Exam item: decide whether the reported growth for `CCn1cc(C(=O)NNC(=S)Nc2ccc(C)cc2)c(=O)c2ccc(C)nc21` is at least 80%.
t

Exam item: decide whether the reported growth for `COC(=O)[C@]12CCC(C)(C)C[C@H]1[C@H]1/C(=N/OCCc3nn[nH]n3)C[C@@H]3[C@@]4(C)CC[C@H](OC(C)=O)C(C)(C)[C@@H]4CC[C@@]3(C)[C@]1(C)CC2` is at least 80%.
f

Exam item: decide whether the reported growth for CC1(C)CC(=O)C2=C(C1)N(c1ccc(OC(F)(F)F)cc1)C(N)=C(C#N)C2c1ccc(Br)cc1F (centres undefined) is at least 80%.
f

Exam item: decide whether the reported growth for `Cn1cc(-c2ccc3nc(-c4ccc(CC(=O)ONc5cc(C(C)(C)C)on5)cc4)cnc3c2)cn1` is at least 80%.
f

Exam item: decide whether the reported growth for `O=C(N(c1ccccc1)c1ccccc1)n1cc(I)c2nc(Cl)nc(Cl)c21` is at least 80%.
f

Exam item: decide whether the reported growth for `CCOC(=O)c1cc2c(n1C)-c1nc(NC(C)=O)sc1CCC2` is at least 80%.
f
